tested on: Fibroblast; assay: Multiplex assay against human fibroblast; assay type: toxicity, cell-based; conditions: 12 h, 10 µM, compound concentration 10 uM, replicate 1
readout-type: Total Cell Count

Value sought for every listed molecule: Total Cell Count.
1. C=CC(=O)Nc1ccc2ncnc(Nc3ccc(OCc4cccc(F)c4)c(Cl)c3)c2c1.Cc1ccc(S(=O)(=O)O)cc1
2. O=C(NCCCC1CCCCC1)c1ccc(CNC(=O)c2cnn(-c3ccccc3)c2C(F)(F)F)cc1 [SR-321]
3. CC(C)(O)CNc1ncc(-c2ccnc(Nc3ccnc(Cl)c3)n2)c(CC2CC2)n1
4. Cl.N#Cc1ccc2[nH]cc(CCCCN3CCN(c4ccc5oc(C(N)=O)cc5c4)CC3)c2c1 [VILAZODONE HYDROCHLORIDE]
5. COc1cc2nccc(Oc3ccc(NC(=O)Nc4cc(C)on4)c(Cl)c3)c2cc1OC.O

122
161 [middle of 4 runs]
97
197
163

###

test system: Fibroblast; experiment: Multiplex assay against human fibroblast; format: toxicity, cell-based; conditions: 24 h, 10 µM, compound concentration 10 uM, replicate 2
readout-type: Population Mitochondria Different-Phenotype (%)

In the examples that follow, each entry is paired with its recorded Population Mitochondria Different-Phenotype (%).
>>> val("CN(C)C(=O)/C(C#N)=C/c1ccc(-c2nc3cnc4[nH]ccc4c3n2C2CCCCC2)o1")
"49%"
>>> val("COc1cc(-n2cnc3cc(-c4ccc(Cl)cc4)sc3c2=O)ccc1OCCN1CCCC1")
"89%"

Value sought for every listed molecule: Population Mitochondria Different-Phenotype (%).
1. Cc1nc(Nc2n[nH]c3c2CN(C(=O)N[C@H](CN(C)C)c2ccccc2)C3(C)C)c2sccc2n1
2. Cn1cc(-c2[nH]c3cc(NC(=O)[C@H](N)C4CCCCC4)cc4c3c2C=NNC4=O)cn1
3. Cl.N#Cc1ccc2[nH]cc(CCCCN3CCN(c4ccc5oc(C(N)=O)cc5c4)CC3)c2c1 [VILAZODONE HYDROCHLORIDE]
4. CN(C)CC#Cc1ccc(OCCCc2sc(N3CCc4cccc(C(=O)Nc5nc6ccccc6s5)c4C3)nc2C(=O)O)c(F)c1

1: 22%; 2: 61%; 3: 90%; 4: 14%

###

tested on: HEK-293T; experiment: Multiplex assay against HEK293T; type: toxicity, cell-based; details: human, 24 h, 1 µM, compound concentration 1 uM, replicate 1
Tag: label 1 if measured Population Pyknosed Nuclei (%) is not below 30%, label 0 if it is.

Here are 4 compounds together with their reported answers.
>>> category("CN(C)C(=O)N[C@H]1CC[C@H](CCN2CCN(c3cccc(Cl)c3Cl)CC2)CC1.Cl [CARIPRAZINE HYDROCHLORIDE]")
"label 0"
>>> category("CC(C)NCC(O)COc1ccc(CCOCC2CC2)cc1.Cl (stereo unspecified) [BETAXOLOL HYDROCHLORIDE]")
"label 1"
>>> category("CC(C)(O)CNc1ncc(-c2ccnc(Nc3ccnc(Cl)c3)n2)c(CC2CC2)n1")
"label 1"
>>> category("Cl.N#Cc1ccc2[nH]cc(CCCCN3CCN(c4ccc5oc(C(N)=O)cc5c4)CC3)c2c1 [VILAZODONE HYDROCHLORIDE]")
"label 1"

Now for another entry.
Is Population Pyknosed Nuclei (%) at least 30%? Consider CN(C)CC#Cc1ccc(OCCCc2sc(N3CCc4cccc(C(=O)Nc5nc6ccccc6s5)c4C3)nc2C(=O)O)c(F)c1
label 1
